This collection of values is drawn from PubChem BioAssay (NCI).

tested on: UACC-257 melanoma; assay: NCI tumour cell line growth inhibition, 48 h
propertyName: TGI

The cases that follow already have their TGI on record.
| compound | TGI |
| --- | --- |
| NC1=NC(=O)C(CC(=O)Nc2ccc(Cl)cc2Cl)S1 (stereo not given) | > 100 µM |
| FC(F)(F)c1cccc(-c2nn3ncccc3c2-c2ccnc(Nc3ccc4c(c3)OCCO4)n2)c1 | > 25 µM |
| COc1ccc(CNc2cc(=O)n(C)c(=O)[nH]2)cc1 | > 100 µM |
| CC(=O)OCC1OC(OCCCOP(=S)(OCCC#N)OCC2OC(n3ccc(N)nc3=O)C(OC(=O)c3ccccc3)C2OC(=O)c2ccccc2)C(OC(C)=O)C(OC(C)=O)C1OC(C)=O (stereo not given) | > 100 µM |
| COC(=O)C(Cc1c[nH]c2ccccc12)N=C1Nc2ccncc2S(=O)(=O)N1c1cccc(OC(C)C)c1 (stereo not given) | > 100 µM |

Input: Give the measured TGI of CC1CC(C#N)=C2NCCN2C1=O (stereo not given) .
Output: > 100 µM

Input: Okay, and CCCCNc1nc(NC2OCC(OC(C)=O)C(OC(C)=O)C2OC(C)=O)c(N=O)c(=O)n1C (stereo not given) ?
Output: > 10 µM

Input: How about `C=C1[C@@H](O)O[C@H]2[C@H]1C[C@H](OC(C)=O)[C@]13C(=O)O[C@H]4C[C@](C)(O)[C@H]([C@H]41)C31C=C(C)[C@]2(O)O1` ?
Output: 87.2 µM

Input: And then `CCN(CCN(CC)C(=O)Nc1ccccc1)C(=O)Nc1ccccc1` , what is it?
Output: > 100 µM

Input: Next entry: `COc1cc2c3c([nH]c2c(OC)c1OC)CCN(Cc1ccccc1)C3`
Output: 40 µM

====

system: HS 578T breast; assay: NCI tumour cell line growth inhibition, 48 h; in the data active means GI50 below about 0.43 µM; inactive means the rest
Write down the outcome that applies. Available outcomes: active, inactive

| compound | labelValue |
| --- | --- |
| O=c1c2cc(F)ccc2sc2c(NCCCNCCO)nc3ccccc3c12 | inactive |

Input: Outcome logged for `O=C1C(OCCOc2ccccc2)=C(OCCOc2ccccc2)C(=O)c2ccccc21` in this assay:
Output: inactive

Input: Queued: CC1c2ccccc2CCN1c1ccc(CO)c(Cl)c1 (configuration not stated)
Output: inactive

Input: # iterate: `Fc1ccc(/C=N/n2c(-c3ccc(F)c(Cl)c3)n[nH]c2=S)cc1`
Output: inactive

Input: And `CCC(=O)Nc1ccc(N2C(=O)/C(=C/c3ccc(OC)cc3)N=C2c2ccccc2)cc1` ?
Output: inactive

Input: Follow-up item: `COc1ccc(/C=C(\C)[N+](=O)[O-])cc1OC`
Output: inactive

====

tested on: MCF7 breast; assay: NCI tumour cell line growth inhibition, 48 h
propertyName: TGI

| molecule | target | result |
| --- | --- | --- |
| COc1cc(Oc2nc3ccc(C(F)(F)F)cc3nc2-c2ccccc2)cc(OC)c1OC | MCF7 breast | > 100 µM |
| O=NN(CCF)C(=O)NC1CCSCC1 | MCF7 breast | > 100 µM |
| CCOC(=O)Cn1nnc2ccc(Nc3nc4ccccc4nc3-c3ccccc3)cc21 | MCF7 breast | > 100 µM |

Input: Consider the molecule shown here: `Nc1nc(N)c(CCCCc2ccccc2)c(N)n1` What is its recorded TGI?
Output: > 100 µM

Input: Also Cc1cc(C)c(C2CNCc3cc4c(cc32)CNCC4c2c(C)cc(C)cc2C)c(C)c1 (stereo unspecified) ?
Output: 20.1 µg/mL

Input: Quick one: `COc1ccc(CNc2cc(=O)n(C)c(=O)[nH]2)cc1`
Output: > 100 µM
